# target under test: mAChR M4 (Homo sapiens, UniProt P08173)
# Construct: expressed in transfected cells; host or cells: CHO-K1 cells stably transfected with M4 cDNA and chimeric G-protein Gqi5
# Sequence (P08173 whole entry): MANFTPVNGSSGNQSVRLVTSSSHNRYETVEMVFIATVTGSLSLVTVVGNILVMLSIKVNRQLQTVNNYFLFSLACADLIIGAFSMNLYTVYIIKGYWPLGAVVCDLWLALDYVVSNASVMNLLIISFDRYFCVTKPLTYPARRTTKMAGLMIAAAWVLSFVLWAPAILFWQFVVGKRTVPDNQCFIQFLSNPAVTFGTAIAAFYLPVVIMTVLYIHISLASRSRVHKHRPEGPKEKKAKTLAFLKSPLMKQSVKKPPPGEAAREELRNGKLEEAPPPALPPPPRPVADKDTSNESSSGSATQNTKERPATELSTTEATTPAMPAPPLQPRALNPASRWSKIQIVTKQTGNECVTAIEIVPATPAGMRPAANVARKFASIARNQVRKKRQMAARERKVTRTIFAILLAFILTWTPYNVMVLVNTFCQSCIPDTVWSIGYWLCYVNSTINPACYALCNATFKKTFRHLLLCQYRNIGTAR
# method description: mAChR M4 cell-based functional assay (calcium mobilization, potentiation of EC20 acetylcholine response)
# test settings: % ACh maximum at 30 μM
The entries below are paired with their reported Emax at 30 µM.

- compound: "Cc1nnc2sc(C(=O)N3CC(F)(c4ccc([S+](C)[O-])cc4)C3)c(N)c2c1C (centres unmarked) [Example B384]"
  target under test: "mAChR M4 (Homo sapiens, UniProt P08173)"
  Emax at 30 µM [%]: 71
- compound: "Cc1ccccc1N1CCC(NC(=O)c2sc3nnc(C)c(C)c3c2N)C1 (centres unmarked) [Example B269]"
  target under test: "mAChR M4 (Homo sapiens, UniProt P08173)"
  Emax at 30 µM [%]: 68
- compound: "Cc1nnc2sc(C(=O)NCc3ccc(C(C)(O)C(F)(F)F)cc3)c(N)c2c1C (centres unmarked) [Example B106]"
  target under test: "mAChR M4 (Homo sapiens, UniProt P08173)"
  Emax at 30 µM [%]: 71
- compound: "Cc1nnc2sc(C(=O)N3CC(NC(=O)c4ccccc4)C3)c(N)c2c1C [Example B169]"
  target under test: "mAChR M4 (Homo sapiens, UniProt P08173)"
  Emax at 30 µM [%]: 68
- compound: "Cc1nnc2sc(C(=O)NCc3ccc(OC(F)(F)F)cc3)c(N)c2c1C [Example B181]"
  target under test: "mAChR M4 (Homo sapiens, UniProt P08173)"
  Emax at 30 µM [%]: 68
